# target entity: human B-Raf (Homo sapiens)
# Construct: Flag; GST; made in house; host or cells: Sf9 insect cells (B-Raf); E. coli (MEK1-GST)
# Sequence (P15056 whole entry): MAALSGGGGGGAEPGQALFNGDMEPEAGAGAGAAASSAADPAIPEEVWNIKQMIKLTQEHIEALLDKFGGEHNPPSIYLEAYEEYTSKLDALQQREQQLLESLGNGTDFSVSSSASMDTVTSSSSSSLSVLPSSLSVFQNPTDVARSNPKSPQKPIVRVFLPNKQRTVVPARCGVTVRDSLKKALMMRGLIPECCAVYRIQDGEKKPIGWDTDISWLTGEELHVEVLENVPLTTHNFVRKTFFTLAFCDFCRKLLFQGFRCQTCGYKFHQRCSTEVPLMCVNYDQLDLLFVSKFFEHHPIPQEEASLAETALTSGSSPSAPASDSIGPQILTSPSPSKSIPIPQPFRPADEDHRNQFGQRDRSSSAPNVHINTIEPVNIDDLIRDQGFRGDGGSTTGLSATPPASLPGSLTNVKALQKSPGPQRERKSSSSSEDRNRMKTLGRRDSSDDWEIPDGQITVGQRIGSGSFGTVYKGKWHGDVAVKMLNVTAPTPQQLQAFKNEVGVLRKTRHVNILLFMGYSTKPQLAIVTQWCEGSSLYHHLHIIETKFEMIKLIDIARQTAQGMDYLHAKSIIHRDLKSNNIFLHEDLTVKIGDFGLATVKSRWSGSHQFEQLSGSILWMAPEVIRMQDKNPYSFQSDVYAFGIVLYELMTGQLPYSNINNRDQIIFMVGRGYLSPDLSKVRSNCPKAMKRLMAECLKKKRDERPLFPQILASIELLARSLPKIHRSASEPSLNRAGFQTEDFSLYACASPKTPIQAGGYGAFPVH
# test summary: B-Raf Kinase to MEK1 ELISA
# Assay type: biochemical
# measurement setup: read-out: % Inhib./10 uM
measured property: inhibition at 10 µM (%)
Your answer should be a plain number; it is taken to be in %.

The reported inhibition at 10 µM of the compound CCOC(=O)c1cnn2c(-c3cccc(NC(=O)Nc4ccc(Cl)c(Cl)c4)c3)ccnc12 [Example 40] was 81

The reported inhibition at 10 µM of the compound CN(C)CC#Cc1cnn2c(-c3cccc(NC(=O)c4cccc(C(F)(F)F)c4)c3)ccnc12 [Example 205] was 81

The reported inhibition at 10 µM of the compound Cn1cccc1C(=O)Nc1cccc(-c2ccnc3cc(-c4ccncc4)nn23)c1 [Example 236] was 50

The reported inhibition at 10 µM of the compound CCOC(=O)c1cnn2c(-c3ccc(OC)c(NC(=O)c4ccc(C)c(C(F)(F)F)c4)c3)ccnc12 [Example 107] was 0

The reported inhibition at 10 µM of the compound O=C(Nc1cccc(-c2ccnc3c(-c4ccccc4C(F)(F)F)cnn23)c1)c1cccc(C(F)(F)F)c1 [Example 290] was 67

The reported inhibition at 10 µM of the compound COc1ccc(C(=O)Nc2cccc(-c3ccnc4c(-c5ccncc5)cnn34)c2)cc1C(F)(F)F [Example 189] was 83

The reported inhibition at 10 µM of the compound Cc1ccc(C(=O)Nc2cccc(-c3ccnc4cc(-c5ccncc5)nn34)c2)cc1C(F)(F)F [Example 134] was 96

The reported inhibition at 10 µM of the compound CCOC(=O)c1cnn2c(-c3cccc(NC(=O)Cc4cc(C(F)(F)F)cc(C(F)(F)F)c4)c3)ccnc12 [Example 99] was 13

The reported inhibition at 10 µM of the compound COCCOC(=O)c1cnn2c(-c3cccc(NC(=O)c4cccc(C(F)(F)F)c4)c3)ccnc12 [Example 128] was 68

The reported inhibition at 10 µM of the compound O=C(Nc1cccc(-c2ccnc3c(-c4ccc(CO)cc4)cnn23)c1)c1cccc(C(F)(F)F)c1 [Example 285] was 93

The reported inhibition at 10 µM of the compound Cc1ccc(C(=O)Nc2cccc(-c3ccnc4c(-c5ccccn5)cnn34)c2)cc1C(F)(F)F [Example 65] was 30

The reported inhibition at 10 µM of the compound N#Cc1c(N2CCNCC2)nn2c(-c3cccc(NC(=O)c4cccc(C(F)(F)F)c4)c3)ccnc12 [Example 62] was 54

The reported inhibition at 10 µM of the compound CCOC(=O)c1cnn2c(-c3cccc(NC(=O)c4cc(F)c(Cl)cc4F)c3)ccnc12 [Example 29] was 0

The reported inhibition at 10 µM of the compound O=C(Cc1c[nH]cn1)Nc1ccc(-c2cnn3c(-c4cccc(NC(=O)c5cccc(C(F)(F)F)c5)c4)ccnc23)cc1 [Example 232] was 99

The reported inhibition at 10 µM of the compound CC(C)(C)CC(=O)Nc1cccc(-c2ccnc3cc(-c4ccncc4)nn23)c1 [Example 240] was 10

The reported inhibition at 10 µM of the compound CCOC(=O)c1cnn2c(-c3cccc(NC(=O)Nc4ccc(Br)cc4)c3)ccnc12 [Example 41] was 37

The reported inhibition at 10 µM of the compound CCOC(=O)c1cnn2c(-c3cccc(NC(=O)c4ccc(Cl)cc4)c3)ccnc12 [Example 6] was 38

The reported inhibition at 10 µM of the compound CCOC(=O)c1cnn2c(-c3cccc(NC(=O)Nc4ccc(C)c(C(F)(F)F)c4)c3)ccnc12 [Example 79] was 88

The reported inhibition at 10 µM of the compound CCOC(=O)c1cnn2c(-c3cccc(NC(=O)c4cccn4C)c3)ccnc12 [Example 215] was 0

The reported inhibition at 10 µM of the compound O=C(Nc1cccc(-c2ccnc3cc(N4CCOCC4)nn23)c1)c1ccc(F)c(C(F)(F)F)c1 [Example 196] was 96

The reported inhibition at 10 µM of the compound CCOC(=O)c1cnn2c(-c3cccc(NC(=O)Nc4ccc5ccccc5c4)c3)ccnc12 [Example 21] was 58

All values here come from patent US20070219186A1.
